biological target: Proto-oncogene tyrosine-protein kinase receptor Ret (Homo sapiens, UniProt P07949, V804M); assay: Inhibition of human RET V804M mutant using RRRRRRRRRRRVYSTDYYRLFNPS as substrate in presence of [gamma33P]-ATP by HotSpot assay
Sequence (P07949 29-1114 V804M limits assumed): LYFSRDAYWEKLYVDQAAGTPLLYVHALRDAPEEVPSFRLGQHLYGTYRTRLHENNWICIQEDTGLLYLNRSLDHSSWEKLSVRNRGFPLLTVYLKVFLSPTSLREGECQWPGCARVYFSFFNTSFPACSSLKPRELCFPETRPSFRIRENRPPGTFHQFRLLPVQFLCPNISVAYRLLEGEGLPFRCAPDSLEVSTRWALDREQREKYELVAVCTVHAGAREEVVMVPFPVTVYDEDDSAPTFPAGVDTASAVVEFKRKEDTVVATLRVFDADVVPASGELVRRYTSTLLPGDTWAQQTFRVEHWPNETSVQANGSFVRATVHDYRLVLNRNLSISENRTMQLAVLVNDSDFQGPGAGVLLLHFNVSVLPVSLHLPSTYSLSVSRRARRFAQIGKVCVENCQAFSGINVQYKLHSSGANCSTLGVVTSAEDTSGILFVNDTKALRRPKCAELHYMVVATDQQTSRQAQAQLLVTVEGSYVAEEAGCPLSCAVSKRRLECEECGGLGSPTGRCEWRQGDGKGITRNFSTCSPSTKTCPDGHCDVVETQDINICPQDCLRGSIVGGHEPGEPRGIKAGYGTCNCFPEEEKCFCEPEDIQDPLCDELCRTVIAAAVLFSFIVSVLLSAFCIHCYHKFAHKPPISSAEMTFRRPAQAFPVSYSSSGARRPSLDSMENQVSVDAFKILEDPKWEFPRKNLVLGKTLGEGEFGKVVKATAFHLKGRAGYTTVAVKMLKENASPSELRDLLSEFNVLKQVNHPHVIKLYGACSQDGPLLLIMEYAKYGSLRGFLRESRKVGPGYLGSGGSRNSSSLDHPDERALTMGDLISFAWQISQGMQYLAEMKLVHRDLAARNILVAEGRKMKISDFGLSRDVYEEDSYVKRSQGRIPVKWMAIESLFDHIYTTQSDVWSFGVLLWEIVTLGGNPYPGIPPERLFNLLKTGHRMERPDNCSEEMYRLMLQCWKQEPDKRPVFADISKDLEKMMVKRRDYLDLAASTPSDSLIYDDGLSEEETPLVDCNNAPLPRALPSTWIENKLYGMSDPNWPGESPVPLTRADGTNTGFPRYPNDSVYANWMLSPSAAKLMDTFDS
readoutKind: pIC50
Answers are plain numbers, as −log10 of the molar value.

Q: Field request: pIC50 | item: COc1cc(N2CCC(N3CCN(C)CC3)CC2)ccc1Nc1ncc(Cl)c(Nc2ccccc2P(C)(C)=O)n1 [BRIGATINIB]
Result: 7.66
